Target: human IL-17AA (Homo sapiens, UniProt Q16552)
Sequence (Q16552 24-155): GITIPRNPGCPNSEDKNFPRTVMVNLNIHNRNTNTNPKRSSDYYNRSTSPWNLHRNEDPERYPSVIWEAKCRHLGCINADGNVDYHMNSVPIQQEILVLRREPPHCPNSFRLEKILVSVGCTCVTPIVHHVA
Experiment: IL-8 release assay in human epithelial keratinocytes adult (HEKa)
Details: HEKa cells, 3 ng/mL HEK-human IL-17AA + 10 ng/mL human TNFalpha; read-out: Rel EC50 IL-8 release assay
measured metric: EC50

Use these answered entries as a reference point.
| compound | EC50 |
| --- | --- |
| Cn1cncc1-c1ccc(NC(=O)[C@@H](NC(=O)c2ccnn2C)[C@@H]2CCCc3ccc(Br)cc32)cc1 [Example 344] | > 1000 nM |
| Cc1n[nH]c(C)c1-c1ccc(NC(=O)[C@@H](NC(=O)OC2CC2)C2CCCCCC2)cc1O [Example 425] | 100 to 1000 nM |
| Cc1ncn(C)c1-c1ccc(NC(=O)C(NC(=O)OC(C)(C)C)C(C2CC2)C2CC2)cc1 (stereo not drawn) [Example 84] | 100 to 1000 nM |
| Cn1cncc1-c1ccc(NC(=O)[C@@H](NC(=O)c2ccnn2C)C2CCCCC2)cc1 [Example 343] | > 1000 nM |

Moving on to the next compound.
Ask | Could you share which EC50 value was measured for Cc1nocc1C(=O)N[C@H](C(=O)Nc1ccc(-c2c(C)n[nH]c2C)cc1)C1CCCCCC1 [Example 59] ?
Reply | < 100 nM
